experiment: qHTS of pediatric cancer cell lines to identify multiple opportunities for drug repurposing: Primary screen for SK-N-SH cells (AID 1347098); details: SK-N-SH viability, CellTiter-Glo luminescence, 48 h; series mostly up to 57 µM; note: nearly all actives have a fitted effect of over 65% in size
Results filed as inconclusive are left out. The source made the active and inactive calls. Calls come from the whole dose curve; as a rule, active = well fitted cell-killing curve with a large enough effect; inconclusive = small, poorly fitted or top-dose-only effect; inactive = no such curve, though single readings can be large or run the other way.
Thanks in advance; please answer with one of these: TRUE = active, FALSE = inactive

For CCCCCCCCCCCC[N+](C)(C)CCOc1ccccc1 , what call appears in the results of this test?
TRUE

For C=CC[C@]1(O)CC[C@H]2[C@@H]3CCC4=CC(=O)CCC4=C3C=C[C@@]21C , what call appears in the results of this test?
FALSE

For C[C@]12C=CC(=O)C=C1CC[C@@H]1[C@@H]2CC[C@@]2(C)[C@H]1CC[C@]2(C)O , what call appears in the results of this test?
FALSE

For C[N+](C)(C)CCOC(=O)C(O)(c1ccccc1)c1ccccc1 , what call appears in the results of this test?
FALSE

For ClC1=C(Cl)C2(Cl)C(CBr)CC1(Cl)C2(Cl)Cl (stereo unspecified) , what call appears in the results of this test?
FALSE

For CCOC(=O)C1(c2ccccc2)CCN(CCc2ccc(N)cc2)CC1 , what call appears in the results of this test?
FALSE

For COc1cc(C[C@@H](C)N)c(OC)cc1Br , what call appears in the results of this test?
FALSE

For CC(C)[N+](C)(CCC(C(N)=O)(c1ccccc1)c1ccccc1)C(C)C , what call appears in the results of this test?
FALSE

For Oc1c(Br)cc(Br)cc1Br , what call appears in the results of this test?
FALSE

For Cc1ccc(N=CN(C)C=Nc2ccc(C)cc2C)c(C)c1 , what call appears in the results of this test?
FALSE

For CC(Cc1ccc2c(c1)OCO2)NO (stereo unspecified) , what call appears in the results of this test?
FALSE

====

system: TAB109; assay: qHTS profiling for inhibitors of Plasmodium falciparum proliferation (AID 504749); note: nearly all actives have a fitted effect of over 60% in size; settings: P. falciparum in erythrocytes, SYBR Green DNA, 72 h; series mostly up to 28.7 µM
Records with an inconclusive call do not appear. The source made the active and inactive calls. Calls follow the shape of the dose curve; as a rule, active = well fitted inhibition curve with a large enough effect; inconclusive = small, poorly fitted or top-dose-only effect; inactive = flat fitted curve, though single readings scatter.
Thanks in advance; please answer with one of these: Y for active, N for inactive

Use the examples below as a reference point.
| molecule | tested.on | assigned.category |
| --- | --- | --- |
| C[N+]1(CCC(C(N)=O)(c2ccccc2)c2ccccc2)CCCCC1 | TAB109 | N |
| C=CCOC(Cn1ccnc1)c1ccc(Cl)cc1Cl (centres undefined) | TAB109 | Y |
| CNC(=O)Oc1cccc2ccccc12 | TAB109 | N |
| COc1ccc(C(=O)N2CCCC2=O)cc1 | TAB109 | N |
| CCS(=O)(=O)C(C)(C)S(=O)(=O)CC | TAB109 | N |

For NC(=O)OCCCc1ccccc1 , what call appears in the results of this test?
N

For CCC1(CC)C(=O)NC(=O)NC1=O , what call appears in the results of this test?
N

For COC(=O)C1=CCCN(C)C1 , what call appears in the results of this test?
N

For CN(C)C(=S)SSC(=S)N(C)C , what call appears in the results of this test?
Y

For CCNc1nc(Cl)nc(NCC)n1 , what call appears in the results of this test?
N

For OC(c1ccccc1)(c1ccccc1)C1CCNCC1 , what call appears in the results of this test?
N

For CC(C)C(Br)C(=O)NC(N)=O (centres undefined) , what call appears in the results of this test?
N

For C[C@]12CC[C@H]3[C@@H](CC=C4C[C@@H](O)CC[C@@]43C)[C@@H]1CC[C@@H]2O , what call appears in the results of this test?
N

For CN1C(=O)CN=C(c2ccccc2)c2cc([N+](=O)[O-])ccc21 , what call appears in the results of this test?
N

For CCN(Cc1ccc(Cl)nc1)/C(=C/[N+](=O)[O-])NC , what call appears in the results of this test?
N

For C[C@]12C=CC(=O)C=C1CC[C@@H]1[C@@H]2CC[C@@]2(C)[C@H]1CC[C@]2(C)O , what call appears in the results of this test?
N

For CCC1(c2ccccc2)CCC(=O)NC1=O (centres undefined) , what call appears in the results of this test?
N

For CCN(CC)C(C)C(=O)c1ccccc1 (centres undefined) , what call appears in the results of this test?
N

For CC(C)NCC(O)c1ccc(N)c(C#N)c1 (centres undefined) , what call appears in the results of this test?
N

The origin of these recorded values is PubChem BioAssay (NCATS).
